# assay.system: T1, antithrombin III (plasma purified human AT-III), used as the AT-III/unfractionated heparin complex (human, UniProt P01008 33-464)
# T1 construct: also called AT-III/UFH
# measurement.notes: K0.5: AT-III/UFH titrated against FIXa, 10 s, residual cleavage of Mesyl-D-CHG-Gly-Arg-AMC
property.label: IC50 (nM)
The answer is to be given in nM; state only the numeric part.

FIXa-R338E/R403E/E410N (enzyme, also called R170E/R233E/E240N (chymotrypsin numbering)) chain 1: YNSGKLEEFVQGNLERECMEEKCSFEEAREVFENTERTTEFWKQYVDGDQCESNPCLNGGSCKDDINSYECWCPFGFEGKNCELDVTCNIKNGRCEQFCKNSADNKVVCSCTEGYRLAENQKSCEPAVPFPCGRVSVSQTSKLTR chain 2: VVGGEDAKPGQFPWQVVLNGKVDAFCGGSIVNEKWIVTAAHCVETGVKITVVAGEHNIEETEHTEQKRNVIRIIPHHNYNAAINKYNHDIALLELDEPLVLNSYVTPICIADKEYTNIFLKFGSGYVSGWGRVFHKGRSALVLQYLRVPLVDRATCLESTKFTIYNNMFCAGFHEGGRDSCQGDSGGPHVTEVEGTSFLTGIISWGEECAMKGKYGIYTKVSEYVNWIKNKTKLT	2350

Would you kindly look at the next entry?
Check the records and state IC50 for FIXa-D203N/F205T/R338E (enzyme, also called D39N/F41T/R170E (chymotrypsin numbering)) chain 1: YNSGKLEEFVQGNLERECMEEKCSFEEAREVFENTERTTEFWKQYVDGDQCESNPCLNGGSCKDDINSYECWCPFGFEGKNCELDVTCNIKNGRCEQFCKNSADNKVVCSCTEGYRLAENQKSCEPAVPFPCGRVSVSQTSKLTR chain 2: VVGGEDAKPGQFPWQVVLNGKVNATCGGSIVNEKWIVTAAHCVETGVKITVVAGEHNIEETEHTEQKRNVIRIIPHHNYNAAINKYNHDIALLELDEPLVLNSYVTPICIADKEYTNIFLKFGSGYVSGWGRVFHKGRSALVLQYLRVPLVDRATCLESTKFTIYNNMFCAGFHEGGRDSCQGDSGGPHVTEVEGTSFLTGIISWGEECAMKGKYGIYTKVSRYVNWIKEKTKLT
1170

Reference source: patent US20210238260A1
